Conditions: in ethanol, 318.15 K

{"columns": ["querySmiles", "solubility (mole fraction)"],
 "data": [
  ["CC(C)c1nc(N(C)S(C)(=O)=O)nc(-c2ccc(F)cc2)c1/C=C/[C@@H](O)C[C@@H](O)CC(=O)[O-].CC(C)c1nc(N(C)S(C)(=O)=O)nc(-c2ccc(F)cc2)c1/C=C/[C@@H](O)C[C@@H](O)CC(=O)[O-].[Ca+2]", 0.000681]
]}

* * *

Settings: in isopropanol, 308.15 K

{"columns": ["querySmiles", "solubility (mole fraction)"],
 "data": [
  ["CC(C)c1nc(N(C)S(C)(=O)=O)nc(-c2ccc(F)cc2)c1/C=C/[C@@H](O)C[C@@H](O)CC(=O)[O-].CC(C)c1nc(N(C)S(C)(=O)=O)nc(-c2ccc(F)cc2)c1/C=C/[C@@H](O)C[C@@H](O)CC(=O)[O-].[Ca+2]", 0.000432]
]}

* * *

Details: in n-butanol, 308.15 K

{"columns": ["querySmiles", "solubility (mole fraction)"],
 "data": [
  ["CC(C)c1nc(N(C)S(C)(=O)=O)nc(-c2ccc(F)cc2)c1/C=C/[C@@H](O)C[C@@H](O)CC(=O)[O-].CC(C)c1nc(N(C)S(C)(=O)=O)nc(-c2ccc(F)cc2)c1/C=C/[C@@H](O)C[C@@H](O)CC(=O)[O-].[Ca+2]", 0.000614]
]}

* * *

Conditions: in sec-butanol, 298.15 K

{"columns": ["querySmiles", "solubility (mole fraction)"],
 "data": [
  ["CC(C)c1nc(N(C)S(C)(=O)=O)nc(-c2ccc(F)cc2)c1/C=C/[C@@H](O)C[C@@H](O)CC(=O)[O-].CC(C)c1nc(N(C)S(C)(=O)=O)nc(-c2ccc(F)cc2)c1/C=C/[C@@H](O)C[C@@H](O)CC(=O)[O-].[Ca+2]", "7.17e-05"]
]}

* * *

Details: in n-butanol, 313.15 K

{"columns": ["querySmiles", "solubility (mole fraction)"],
 "data": [
  ["CC(C)c1nc(N(C)S(C)(=O)=O)nc(-c2ccc(F)cc2)c1/C=C/[C@@H](O)C[C@@H](O)CC(=O)[O-].CC(C)c1nc(N(C)S(C)(=O)=O)nc(-c2ccc(F)cc2)c1/C=C/[C@@H](O)C[C@@H](O)CC(=O)[O-].[Ca+2]", 0.00071]
]}
